Known normalized growth of a selection of compounds
# assay notes: chemical genetic growth profiling, strain panel (AID 1159580);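 also: tested at 20 µM; growth read once vehicle control cultures reached saturation at 30 °C; 1 = growth at the plate median or of vehicle wells; lower values mean less growth of the strain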
# experimental conditions: S. cerevisiae deletion strains, growth OD, locus YGL227W, strain vid30, active compounds read low
About 2,000 (36%) of roughly 5,500 compounds were called active. About 18% were inconclusive and are not listed. This is one part of the list.

{"compound": "COc1cc([C@@H]2c3cc4c(cc3[C@H](O)[C@H]3COC(=O)[C@@H]23)OCO4)cc(OC)c1OC", "normalized growth": 1.03}
{"compound": "CC(C)(Oc1ccc(Cl)cc1)C(=O)O", "normalized growth": 0.993}
{"compound": "O=c1c2ccccc2oc2ccccc12", "normalized growth": 0.95}
{"compound": "CC(C)(C)C(=O)C(Oc1ccc(Cl)cc1)n1cncn1 (stereo not drawn)", "normalized growth": 0.158}
{"compound": "CC(=O)N(O)CCCCCNC(=O)CCC(=O)N(O)CCCCCNC(=O)CCC(=O)N(O)CCCCCN", "normalized growth": 1.02}
{"compound": "C[C@@H]1CC[C@@]2(OC1)OC1C(O)C3C4CC[C@H]5C[C@H](O[C@@H]6O[C@H](CO)[C@H](O[C@@H]7O[C@H](CO)[C@@H](O)[C@H](O[C@@H]8OC[C@@H](O)[C@H](O)[C@H]8O)[C@H]7O[C@@H]7O[C@H](CO)[C@H](O)[C@H](O[C@@H]8O[C@H](CO)[C@@H](O)[C@H](O)[C@H]8O)[C@H]7O)[C@H](O)[C@H]6O)[C@H](O)C[C@]5(C)C4CC[C@]3(C)C1[C@@H]2C (stereo partly drawn)", "normalized growth": 1.03}
{"compound": "CC[N+]1(C)CCCC(OC(=O)C(O)(c2ccccc2)c2ccccc2)C1 (stereo not drawn)", "normalized growth": 1.03}
{"compound": "C/C(=C\\C(=O)OCCCCCCCCC(=O)O)C[C@@H]1OC[C@H](C[C@@H]2O[C@H]2[C@@H](C)[C@H](C)O)[C@@H](O)[C@H]1O", "normalized growth": 0.965}
